For each entry below, report its IC50 value.
# targetSystem: pneumolysin (Streptococcus pneumoniae serotype 2, UniProt Q04IN8)
# Sequence (Q04IN8 whole entry): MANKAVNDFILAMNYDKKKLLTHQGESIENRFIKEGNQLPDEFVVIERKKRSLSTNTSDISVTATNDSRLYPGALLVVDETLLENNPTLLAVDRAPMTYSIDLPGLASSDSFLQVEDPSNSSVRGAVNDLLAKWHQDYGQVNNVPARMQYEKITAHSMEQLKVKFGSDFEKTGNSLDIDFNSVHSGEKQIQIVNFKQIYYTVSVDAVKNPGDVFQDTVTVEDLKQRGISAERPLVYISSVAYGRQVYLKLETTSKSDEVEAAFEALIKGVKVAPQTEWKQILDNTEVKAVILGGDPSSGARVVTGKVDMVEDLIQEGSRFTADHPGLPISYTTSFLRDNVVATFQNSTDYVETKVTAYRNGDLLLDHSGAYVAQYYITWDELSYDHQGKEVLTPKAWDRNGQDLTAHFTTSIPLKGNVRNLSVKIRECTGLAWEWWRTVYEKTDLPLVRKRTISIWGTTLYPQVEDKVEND
# testMethodNotes: Inhibition of the haemolytic activity of pneumolysin (sheep erythrocytes)
# Format: cell-based
# measurementParameters: IC50, inhibition of pneumolysin-induced haemolysis of sheep erythrocytes; class symbols of Table 1

Lookup: IC50 / pneumolysin (Streptococcus pneumoniae serotype 2, UniProt Q04IN8) / CCOC(=O)c1c(O)c(OCCO)c(C(=O)OCC)n1-c1ccc(OC)cc1
20 to 60 µM

Please state recorded IC50 (tested on pneumolysin (Streptococcus pneumoniae serotype 2, UniProt Q04IN8)) of CCOC(=O)c1c(OCc2ccccc2)c(OCc2ccccc2)c(-c2nnc(C)o2)n1-c1ccc(OC)cc1
< 10 µM

Form field - read-out: IC50; system: pneumolysin (Streptococcus pneumoniae serotype 2, UniProt Q04IN8); submitted item: COc1ccc(-n2c(C(=O)N(C)C)c(OC(=O)C(C)C)c(OC(=O)C(C)C)c2C(=O)N(C)C)cc1
10 to 20 µM

Please state recorded IC50 (tested on pneumolysin (Streptococcus pneumoniae serotype 2, UniProt Q04IN8)) of CCOc1ccc(-n2c(C(=O)N3CCOCC3)c(OCc3ccccc3)c(OCc3ccccc3)c2C(=O)N2CCOCC2)cc1
10 to 20 µM

What value of IC50 on pneumolysin (Streptococcus pneumoniae serotype 2, UniProt Q04IN8) does CCOC(=O)c1c(O)c(O)c(C(=O)N(C)C)n1-c1ccc(OP(=O)(O)O)cc1 have?
< 10 µM

Hi! What's the reported IC50 for CCOC(=O)c1c(O)c(O)c(C(=O)OCC)n1-c1ccc(C#N)cc1 on pneumolysin (Streptococcus pneumoniae serotype 2, UniProt Q04IN8)?
10 to 20 µM

Give recorded IC50 with pneumolysin (Streptococcus pneumoniae serotype 2, UniProt Q04IN8) for the following molecule: COc1ccc(-n2c(C(=O)OC(C)(C)C)c(O)c(O)c2C(=O)OC(C)(C)C)cc1
< 10 µM

Param readout = IC50; param system = pneumolysin (Streptococcus pneumoniae serotype 2, UniProt Q04IN8); param query = O=C(c1c(O)c(O)c(C(=O)N2CCOCC2)n1-c1ccc(C(F)(F)F)cc1)N1CCOCC1 ; response: value
< 10 µM

Find IC50 (pneumolysin (Streptococcus pneumoniae serotype 2, UniProt Q04IN8)) for the entry CCOC(=O)c1c(O)c(OS(N)(=O)=O)c(C(=O)N(C)C)n1-c1ccc(OC)cc1
< 10 µM

Can you look up IC50 on pneumolysin (Streptococcus pneumoniae serotype 2, UniProt Q04IN8) for COc1ccc(-n2c(C(=O)N(C)C)c(OC(=O)C(C)(C)COCCOCCOP(=O)(O)O)c(OC(=O)C(C)(C)COCCOCCOP(=O)(O)O)c2C(=O)N(C)C)cc1 ?
10 to 20 µM

Give recorded IC50 with pneumolysin (Streptococcus pneumoniae serotype 2, UniProt Q04IN8) for the following molecule: COc1ccc(-n2c(C(=O)N3CCN(C(C)=O)CC3)c(OCc3ccccc3)c(OCc3ccccc3)c2C(=O)N2CCN(C(C)=O)CC2)cc1
20 to 60 µM

# returns recorded IC50 (system: pneumolysin (Streptococcus pneumoniae serotype 2, UniProt Q04IN8)) for COc1ccc(-n2c(C(=O)OC3C(C)CCCC3C)c(O)c(O)c2C(=O)N(C)C)cc1 (centres unmarked)
< 10 µM

Param readout = IC50; param system = pneumolysin (Streptococcus pneumoniae serotype 2, UniProt Q04IN8); param query = COc1ccc(-n2c(C(=O)N(C)C)c(O)c(O)c2P(C)(C)=O)cc1 ; response: value
< 10 µM

Please provide the recorded IC50 for CCOC(=O)c1c(OCOP(=O)(O)O)c(O)c(C(=O)N(C)C)n1-c1ccc(OC)cc1 , tested on pneumolysin (Streptococcus pneumoniae serotype 2, UniProt Q04IN8).
20 to 60 µM

Item COc1ccc(-n2c(C(=O)N(C)C)c(O)c(O)c2C(=O)N2CCCCC2)cc1 with pneumolysin (Streptococcus pneumoniae serotype 2, UniProt Q04IN8) - IC50?
< 10 µM

# get_value(readout= IC50, system= pneumolysin (Streptococcus pneumoniae serotype 2, UniProt Q04IN8)) for CN(C)C(=O)c1c(OCc2ccccc2)c(OCc2ccccc2)c(C(=O)N(C)C)n1-c1ccc(C(F)(F)F)cc1
10 to 20 µM

Hi! What's the reported IC50 for CCOc1ccc(-n2c(C(=O)N3CCOCC3)c(O)c(O)c2C(=O)N2CCOCC2)cc1 on pneumolysin (Streptococcus pneumoniae serotype 2, UniProt Q04IN8)?
< 10 µM

Return IC50 measured with pneumolysin (Streptococcus pneumoniae serotype 2, UniProt Q04IN8) given this molecule: CCOC(=O)c1c(O)c(O)c(C(=O)OCC)n1-c1cccc(Oc2ccccc2)c1
< 10 µM

Test system pneumolysin (Streptococcus pneumoniae serotype 2, UniProt Q04IN8); read-out IC50; what value for CCOC(=O)c1c(O)c(O)c(-c2nc(CC)cs2)n1-c1ccc(OC)cc1 ?
< 10 µM

Request: IC50, test system pneumolysin (Streptococcus pneumoniae serotype 2, UniProt Q04IN8), entry CN(C)C(=O)c1c(O)c(O)c(C(=O)N(C)C)n1-c1ccc(C(F)(F)F)cc1
< 10 µM

// map COc1ccc(-n2c(C(=O)N(C)C)c(OC(=O)C3CCNCC3)c(OC(=O)C3CCNCC3)c2C(=O)N(C)C)cc1 to recorded IC50 (system: pneumolysin (Streptococcus pneumoniae serotype 2, UniProt Q04IN8))
< 10 µM

Form: Entry = CCOC(=O)c1c(O)c(O)c(C(=O)OCC)n1-c1ccc(C)cc1 | System = pneumolysin (Streptococcus pneumoniae serotype 2, UniProt Q04IN8) | IC50 = ____
< 10 µM

Query for pneumolysin (Streptococcus pneumoniae serotype 2, UniProt Q04IN8): what IC50 does the record show for NC(=O)c1c(O)c(O)c(C(N)=O)n1-c1ccc(F)cc1 ?
10 to 20 µM

Missing value: IC50, pneumolysin (Streptococcus pneumoniae serotype 2, UniProt Q04IN8), entry CCOC(=O)c1c(O)c(O)c(C(=O)OCC)n1-c1ccc(OC(F)(F)F)cc1 . Fill in?
< 10 µM

Which IC50 is reported with pneumolysin (Streptococcus pneumoniae serotype 2, UniProt Q04IN8) for this entry: CCOC(=O)c1c(OCc2ccccc2)c(OCc2ccccc2)c(-c2cccnc2)n1-c1ccc(OC)cc1 ?
< 10 µM

Notebook: pull reported IC50 for pneumolysin (Streptococcus pneumoniae serotype 2, UniProt Q04IN8), entry COc1ccc(-n2c(C(=O)OC(C)C)c(O)c(O)c2C(=O)OC(C)C)cc1
< 10 µM

IC50 of COc1ccc(-n2c(C#N)c(O)c(O)c2C(=O)N(C)C)cc1 on pneumolysin (Streptococcus pneumoniae serotype 2, UniProt Q04IN8)?
< 10 µM

Return IC50 measured with pneumolysin (Streptococcus pneumoniae serotype 2, UniProt Q04IN8) given this molecule: CCOC(=O)c1c(O)c(OCC(N)=O)c(C(=O)OCC)n1-c1ccc(F)cc1
20 to 60 µM

Any idea what IC50 came out for CN(Cc1ccccc1)C(=O)c1c(O)c(O)c(C(=O)N(C)Cc2ccccc2)n1-c1ccc(F)cc1 on pneumolysin (Streptococcus pneumoniae serotype 2, UniProt Q04IN8)?
< 10 µM
